Test system: human sera
runDescription: Esterase substrate specificity, fluorogenic SAR library kinetics in serum
Format: in vitro ADME
Description: Kinetic measurements were performed according to [White et al., 2018] with minor variation. […] The resulting change in fluorescence (λex = 485 nm, λem = 520 nm) was followed for 15 min at 37°C, collecting data every 30 s on a FLUOstar Omega microplate reader (BMG Labtech). Fluorescence measurements were converted to molar concentrations using a fluorescein standard curve (2.5 nmol–0.6 pmol). […] Values for kcat and kcat/Km were calculated based on amount of enzyme added when purified enzymes were used.
quantityKind: Vmax (pmol*min-1*mg sera-1)
Give bare numbers, in pmol*min-1*mg sera-1.

>>> observed("COCCC(=O)OCOc1ccc2c(c1)Oc1cc(OCOC(=O)CCOC)ccc1C21OC(=O)c2ccccc21")
5.88

Give me Vmax for each of these compounds, listed below.
1. CCC(OC)C(=O)OCOc1ccc2c(c1)Oc1cc(OCOC(=O)C(CC)OC)ccc1C21OC(=O)c2ccccc21 (centres unmarked)
2. CSC(C)C(=O)OCOc1ccc2c(c1)Oc1cc(OCOC(=O)C(C)SC)ccc1C21OC(=O)c2ccccc21 (centres unmarked)
3. CCSCCC(=O)OCOc1ccc2c(c1)Oc1cc(OCOC(=O)CCSCC)ccc1C21OC(=O)c2ccccc21
4. C=CCOC(C)C(=O)OCOc1ccc2c(c1)Oc1cc(OCOC(=O)C(C)OCC=C)ccc1C21OC(=O)c2ccccc21 (centres unmarked) [12O]

A:
4.35
1.60
0.690
4.00

Record Vmax per entry; entries follow.
1. CCCC(=O)OCOc1ccc2c(c1)Oc1cc(OCOC(=O)CCC)ccc1C21OC(=O)c2ccccc21
2. CCOC(C)C(=O)OCOc1ccc2c(c1)Oc1cc(OCOC(=O)C(C)OCC)ccc1C21OC(=O)c2ccccc21 (centres unmarked)
3. COCC(=O)OCOc1ccc2c(c1)Oc1cc(OCOC(=O)COC)ccc1C21OC(=O)c2ccccc21
4. CSCC(=O)OCOc1ccc2c(c1)Oc1cc(OCOC(=O)CSC)ccc1C21OC(=O)c2ccccc21
5. CSCCC(=O)OCOc1ccc2c(c1)Oc1cc(OCOC(=O)CCSC)ccc1C21OC(=O)c2ccccc21
6. CCCOCC(=O)OCOc1ccc2c(c1)Oc1cc(OCOC(=O)COCCC)ccc1C21OC(=O)c2ccccc21

A:
1: 1.06; 2: 3.93; 3: 68.6; 4: 30.5; 5: 3.81; 6: 11.7
